System: Chilo suppressalis
Experiment: Insecticidal activity against Chilo suppressalis (rice stem borer) assessed as mortality compound administered as topical application
Type: functional
Provide the reported LD50 of each item.
Give bare numbers, in mg/kg.

Reference set, count: 3
CC1CSSC1CN(C)C.O=C(O)C(=O)O (configuration not stated) ... 50
CN(C)NC1CSSC1.O=C(O)C(=O)O ... 36.2
CN(C)CC1CCSS1.O=C(O)C(=O)O (configuration not stated) ... 4.3

Batch of 4 compounds: report LD50 for each.
1. CN(C)CCC1CCSS1.O=C(O)C(=O)O (configuration not stated)
2. CN(C)N(C)C1CSSC1.O=C(O)C(=O)O
3. CN(C)C1CSSC1.O=C(O)C(=O)O [NEREISTOXIN HYDROGEN OXALATE]
4. CN(C)CCC1CSSC1.O=C(O)C(=O)O

Result:
1: 23.2; 2: 15; 3: 1.7; 4: 28.1
